Biological target: T1, Human latent myostatin (human, UniProt O14793 25-266; O14793 267-375)
T1 construct: also called human myostatin latent form
T1 sequence 1: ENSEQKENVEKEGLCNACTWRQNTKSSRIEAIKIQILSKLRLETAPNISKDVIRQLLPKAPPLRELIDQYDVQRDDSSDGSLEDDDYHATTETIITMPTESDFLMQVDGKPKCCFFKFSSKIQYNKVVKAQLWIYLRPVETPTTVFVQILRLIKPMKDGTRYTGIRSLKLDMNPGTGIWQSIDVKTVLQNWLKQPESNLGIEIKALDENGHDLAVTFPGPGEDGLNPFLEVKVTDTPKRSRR
T1 sequence 2: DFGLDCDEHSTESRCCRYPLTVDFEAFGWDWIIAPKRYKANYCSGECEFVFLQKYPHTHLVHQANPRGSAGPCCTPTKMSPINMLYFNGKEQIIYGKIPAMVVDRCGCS
Test: SPR (BIACORE T200) 37C, pH 5.8, antibody captured by ProA/G
VALUE_KIND: pKd
The scale used: pKd is minus the common logarithm of the concentration in molar units.

[in] pKd lookup needed for MS_M103245H1233-SG1/M103202L1045-SK1 (antibody, human IgG1, kappa, V domains shown, also called MS1032LO23-SG1) VH: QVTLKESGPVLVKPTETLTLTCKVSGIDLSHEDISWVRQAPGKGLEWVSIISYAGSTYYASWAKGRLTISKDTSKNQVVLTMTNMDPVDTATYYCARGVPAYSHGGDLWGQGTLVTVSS VL: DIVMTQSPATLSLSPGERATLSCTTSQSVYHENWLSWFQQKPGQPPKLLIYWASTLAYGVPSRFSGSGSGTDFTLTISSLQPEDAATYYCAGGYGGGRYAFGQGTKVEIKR , thanks.
[out] 7.79

[in] Item: MS_M103205H1057-SG1/M103202L889-SK1 (antibody, human IgG1, kappa, V domains shown, also called MS1032LO12-SG1) VH: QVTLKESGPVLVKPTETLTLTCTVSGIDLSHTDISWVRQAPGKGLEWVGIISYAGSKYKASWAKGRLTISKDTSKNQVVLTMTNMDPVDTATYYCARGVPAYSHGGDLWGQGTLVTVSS VL: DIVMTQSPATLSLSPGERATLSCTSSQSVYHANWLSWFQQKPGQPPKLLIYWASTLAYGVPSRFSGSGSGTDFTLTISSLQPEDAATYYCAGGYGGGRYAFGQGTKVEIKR
[out] 7.07

[in] Item: MS_M103205H1047-SG1/M103202L889-SK1 (antibody, human IgG1, kappa, V domains shown, also called MS1032LO11-SG1) VH: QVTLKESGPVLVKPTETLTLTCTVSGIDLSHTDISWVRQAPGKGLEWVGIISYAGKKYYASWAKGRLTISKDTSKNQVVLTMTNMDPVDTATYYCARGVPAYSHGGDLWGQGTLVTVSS VL: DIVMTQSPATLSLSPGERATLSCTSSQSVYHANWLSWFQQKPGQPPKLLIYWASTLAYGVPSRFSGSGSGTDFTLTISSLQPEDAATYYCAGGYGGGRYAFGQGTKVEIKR
[out] 6.84

[in] Item: MS_M103205H1004-SG1/M103202L889-SK1 (antibody, human IgG1, kappa, V domains shown, also called MS1032LO07-SG1) VH: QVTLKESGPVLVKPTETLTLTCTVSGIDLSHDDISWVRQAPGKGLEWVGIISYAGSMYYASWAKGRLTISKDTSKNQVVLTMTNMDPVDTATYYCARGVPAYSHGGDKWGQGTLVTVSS VL: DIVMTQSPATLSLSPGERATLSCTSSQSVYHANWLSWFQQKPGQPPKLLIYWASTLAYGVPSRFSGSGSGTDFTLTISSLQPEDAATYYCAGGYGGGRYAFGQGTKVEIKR
[out] 7.34

[in] Item: MS_M103245H795-SG1/M103202L1045-SK1 (antibody, human IgG1, kappa, V domains shown, also called MS1032LO21-SG1) VH: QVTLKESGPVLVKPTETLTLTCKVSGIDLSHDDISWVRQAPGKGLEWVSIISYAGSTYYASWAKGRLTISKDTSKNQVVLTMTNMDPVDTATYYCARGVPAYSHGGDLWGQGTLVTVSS VL: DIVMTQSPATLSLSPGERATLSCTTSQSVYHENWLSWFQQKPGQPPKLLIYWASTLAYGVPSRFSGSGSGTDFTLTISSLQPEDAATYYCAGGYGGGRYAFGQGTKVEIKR
[out] 7.28
